Known log10 of IC50 of a selection of molecules
tested on: hepatocellular (HePG2) carcinoma cell line; experiment: MTT cytotoxicity, HePG-2; type: cell-based; settings: Homo sapiens, HepG2, 24 h, read-out: IC50 HePG-2
Property label: log10 of IC50 (log10 of the value in µM)

> print(dat)
                                chem.smiles  observed.result
1  O=C(NCCSc1nc2ccccc2c(=O)n1-c1ccccc1)NCc1ccc(Cl)cc1             1.67
2  COc1ccc(CNC(=O)NCCSc2nc3cc(Cl)ccc3c(=O)n2-c2ccccc2)cc1             1.93
3  O=C(NCCSc1nc2cc(Cl)ccc2c(=O)n1-c1ccccc1)Nc1ccc(C(F)(F)F)cc1             1.49
4  O=C(NCCSc1nc2ccccc2c(=O)n1-c1ccccc1)NCCc1ccccc1             0.83
5  O=C(NCCSc1nc2ccccc2c(=O)n1-c1ccccc1)NCCc1ccc(Cl)cc1             1.70
6  O=C(NCCSc1nc2cc(Cl)ccc2c(=O)n1-c1ccccc1)Nc1ccc(Br)cc1             1.65
7  O=C(NCCSc1nc2cc(Cl)ccc2c(=O)n1-c1ccccc1)Nc1ccc(Cl)cc1             1.61
8  O=C(NCCSc1nc2cc(Cl)ccc2c(=O)n1-c1ccccc1)NCCc1ccc(Cl)cc1             1.25

* * *

tested on: human cervical (Hela) carcinoma cell line; experiment: MTT cytotoxicity, Hela; format: cell-based; details: 24 h, read-out: IC50 Hela
# note: exactly 50 µM is not below, so it is no (0); use yes (1) for IC50 strictly under it

> print(dat)
                                   molecule  classification
1  COc1ccc(NC(=O)NCCSc2nc3cc(Cl)ccc3c(=O)n2-c2ccccc2)cc1 [Compound 5j]         yes (1)
2  O=C(NCCSc1nc2ccccc2c(=O)n1-c1ccccc1)NCc1ccc(Cl)cc1 [Compound 5g]          no (0)
3  COc1ccc(NC(=O)NCCSc2nc3ccccc3c(=O)n2-c2ccccc2)cc1 [Compound 5a]          no (0)
4  O=C(NCCSc1nc2cc(Cl)ccc2c(=O)n1-c1ccccc1)Nc1ccc(Cl)cc1 [Compound 5k]         yes (1)
5  COc1ccc(CNC(=O)NCCSc2nc3ccccc3c(=O)n2-c2ccccc2)cc1 [Compound 5f]         yes (1)
6  O=C(NCCSc1nc2cc(Cl)ccc2c(=O)n1-c1ccccc1)Nc1ccc(C(F)(F)F)cc1 [Compound 5m]         yes (1)
7  O=C(NCCSc1nc2ccccc2c(=O)n1-c1ccccc1)Nc1ccc(C(F)(F)F)cc1 [Compound 5d]         yes (1)
8  O=C(NCCSc1nc2ccccc2c(=O)n1-c1ccccc1)NCCc1ccc(Cl)cc1 [Compound 5i]          no (0)
9  O=C(NCCSc1nc2cc(Cl)ccc2c(=O)n1-c1ccccc1)NCc1ccccc1 [Compound 5n]          no (0)

* * *

// IC50 collected for VEGFR-2 enzyme (Homo sapiens)
Property label: IC50 (nM)

> print(dat)
                                   molecule                    test.target  property.label  observed.result
1  O=C(NCCSc1nc2ccccc2c(=O)n1-c1ccccc1)NCCc1ccccc1 [Compound 5h]  VEGFR-2 enzyme (Homo sapiens)            IC50              215
2  O=C(NCCSc1nc2cc(Cl)ccc2c(=O)n1-c1ccccc1)NCc1ccc(Cl)cc1 [Compound 5p]  VEGFR-2 enzyme (Homo sapiens)            IC50              117
3  O=C(NCCSc1nc2ccccc2c(=O)n1-c1ccccc1)Nc1ccc(C(F)(F)F)cc1 [Compound 5d]  VEGFR-2 enzyme (Homo sapiens)            IC50              274
